methodSummary: isobaric coefficient of expansion
conditions: 348.15 K; 20000 kPa; Liquid; Micro DSCII
Reported isobaric coefficient of expansion values for the following molecules.

{"molecule": "CCCCn1cc[n+](C)c1.O=S(=O)([O-])C(F)(F)F [1-butyl-3-methylimidazolium trifluoromethanesulfonate]", "assayReadout": "isobaric coefficient of expansion", "measured": "0.000568 1/K"}
{"molecule": "CCCCn1cc[n+](C)c1.COS(=O)(=O)[O-] [1-butyl-3-methylimidazolium methyl sulfate]", "assayReadout": "isobaric coefficient of expansion", "measured": "0.000512 1/K"}
{"molecule": "CCCCn1cc[n+](C)c1.F[B-](F)(F)F [1-butyl-3-methylimidazolium tetrafluoroborate]", "assayReadout": "isobaric coefficient of expansion", "measured": "0.000552 1/K"}
{"molecule": "CCCCn1cc[n+](C)c1.[F][Sb-]([F])([F])([F])([F])[F] [1-butyl-3-methylimidazolium hexafluoroantimonate]", "assayReadout": "isobaric coefficient of expansion", "measured": "0.000579 1/K"}

Inquiry: Find the measured isobaric coefficient of expansion of CCCC[n+]1ccn(C)c1.O=S(=O)([N-]S(=O)(=O)C(F)(F)F)C(F)(F)F and report it.
Reply text: 0.000613 1/K

====

methodSummary: isobaric coefficient of expansion
conditions: 308.15 K; 5000 kPa; Liquid; Micro DSCII
assayReadout: isobaric coefficient of expansion

Use these answered entries as a reference point.
{"compound": "CCCCn1cc[n+](C)c1.F[B-](F)(F)F [1-butyl-3-methylimidazolium tetrafluoroborate]", "assayReadout": "isobaric coefficient of expansion", "measured": "0.000588 1/K"}
{"compound": "CCCCn1cc[n+](C)c1.[F][Sb-]([F])([F])([F])([F])[F] [1-butyl-3-methylimidazolium hexafluoroantimonate]", "assayReadout": "isobaric coefficient of expansion", "measured": "0.00062 1/K"}
{"compound": "CCCCn1cc[n+](C)c1.COS(=O)(=O)[O-] [1-butyl-3-methylimidazolium methyl sulfate]", "assayReadout": "isobaric coefficient of expansion", "measured": "0.000544 1/K"}
{"compound": "CCCCn1cc[n+](C)c1.O=S(=O)([O-])C(F)(F)F [1-butyl-3-methylimidazolium trifluoromethanesulfonate]", "assayReadout": "isobaric coefficient of expansion", "measured": "0.000606 1/K"}

For the next question, use this compound.
Inquiry: Find the measured isobaric coefficient of expansion of CCCC[n+]1ccn(C)c1.O=S(=O)([N-]S(=O)(=O)C(F)(F)F)C(F)(F)F and report it.
Reply text: 0.000657 1/K

====

methodSummary: isobaric coefficient of expansion
conditions: 298.15 K; 45000 kPa; Liquid; Micro DSCII
assayReadout: isobaric coefficient of expansion

Use these answered entries as a reference point.
{"compound": "CCCCn1cc[n+](C)c1.F[B-](F)(F)F [1-butyl-3-methylimidazolium tetrafluoroborate]", "measured": "0.000547 1/K"}
{"compound": "CCCCn1cc[n+](C)c1.O=S(=O)([O-])C(F)(F)F [1-butyl-3-methylimidazolium trifluoromethanesulfonate]", "measured": "0.000554 1/K"}
{"compound": "CCCC[n+]1ccn(C)c1.O=S(=O)([N-]S(=O)(=O)C(F)(F)F)C(F)(F)F", "measured": "0.000592 1/K"}
{"compound": "CCCCn1cc[n+](C)c1.COS(=O)(=O)[O-] [1-butyl-3-methylimidazolium methyl sulfate]", "measured": "0.00051 1/K"}

For the next question, use this compound.
Inquiry: Find the measured isobaric coefficient of expansion of CCCCn1cc[n+](C)c1.[F][Sb-]([F])([F])([F])([F])[F] [1-butyl-3-methylimidazolium hexafluoroantimonate] and report it.
Reply text: 0.000571 1/K
